- protocol-details: Toxicokinetics from toxicological studies in dogs, daily oral (gavage) administration
- Format: in vivo, dog
- condition-summary: female, dog, plasma, po, 100 mg/kg, CBD 100 mg/kg oral, Day 1, females, Geometric Mean; read-out: Cmax
- Procedure: Samples were taken from the jugular vein into lithium heparin. Samples were mixed gently by hand then continuously for at least 2 minutes on automatic mixer and placed in a Kryorack until centrifugation, which was carried out at approximately 4° C. as soon as practicable. The resultant plasma was separated under low light conditions, transferred to uniquely labelled clear glass vials, placed in light proof boxes and frozen immediately at <−50° C.
assay-endpoint: Cmax

Per the records, this compound ( C=C(C)[C@@H]1CCC(C)=C[C@H]1c1c(O)cc(CCCCC)cc1O ) has Cmax equal to 1590 ng/mL

====

- protocol-details: Toxicokinetics from toxicological studies in dogs, daily oral (gavage) administration
- Format: in vivo, dog
- condition-summary: female, dog, plasma, po, 100 mg/kg, CBD 100 mg/kg oral, Day 1, females, Mean, N=4; read-out: Vz/F
assay-endpoint: Vd/F (L/kg)
# number only, unit L/kg dropped from output

Per the records, this compound ( C=C(C)[C@@H]1CCC(C)=C[C@H]1c1c(O)cc(CCCCC)cc1O ) has Vd/F equal to 169

====

- protocol-details: Toxicokinetics from toxicological studies in dogs, daily oral (gavage) administration
- Format: in vivo, dog
- condition-summary: female, dog, plasma, po, 100 mg/kg, CBD 100 mg/kg oral, Day 1, females, Median; read-out: Vz/F
assay-endpoint: Vd/F (L/kg)
# number only, unit L/kg dropped from output

Per the records, this compound ( C=C(C)[C@@H]1CCC(C)=C[C@H]1c1c(O)cc(CCCCC)cc1O ) has Vd/F equal to 145

====

- protocol-details: Toxicokinetics from toxicological studies in dogs, daily oral (gavage) administration
- Assay type: in vivo, dog
- condition-summary: female, dog, plasma, po, 100 mg/kg, comparative Table 11, females, 100 mg/kg, Day 1, mean; read-out: Cmax
assay-endpoint: Cmax
Answer with the figure and its unit, nothing else.

Per the records, this compound ( C=C(C)[C@@H]1CCC(C)=C[C@H]1c1c(O)cc(CCCCC)cc1O ) has Cmax equal to 2090 ng/mL

====

- protocol-details: Toxicokinetics from toxicological studies in dogs, daily oral (gavage) administration
- Assay type: in vivo, dog
- condition-summary: male, dog, plasma, po, 100 mg/kg, CBD 100 mg/kg oral, Day 1, males, Mean, N=6; read-out: Cmax
assay-endpoint: Cmax (ng/mL)
# number only, unit ng/mL dropped from output

Per the records, this molecule ( C=C(C)[C@@H]1CCC(C)=C[C@H]1c1c(O)cc(CCCCC)cc1O ) has Cmax equal to 3180

====

- protocol-details: Toxicokinetics from toxicological studies in dogs, daily oral (gavage) administration
- Type: in vivo, dog
- condition-summary: male, dog, plasma, po, 100 mg/kg, CBD 100 mg/kg oral, Day 1, males, individual animals (Subjects 15-20); read-out: tmax
- Protocol: Samples were taken from the jugular vein into lithium heparin. Samples were mixed gently by hand then continuously for at least 2 minutes on automatic mixer and placed in a Kryorack until centrifugation, which was carried out at approximately 4° C. as soon as practicable. The resultant plasma was separated under low light conditions, transferred to uniquely labelled clear glass vials, placed in light proof boxes and frozen immediately at <−50° C.
assay-endpoint: tmax (h)
# number only, unit h dropped from output

Per the records, this molecule ( C=C(C)[C@@H]1CCC(C)=C[C@H]1c1c(O)cc(CCCCC)cc1O ) has tmax equal to 6
